- target_system: Human PARP-1 enzyme (Homo sapiens)
- Construct: purchased Trevigen
- protocol_notes: In vitro Scintillation Proximity Assay (SPA) for PARP-1 inhibitory activity
- Type: biochemical
- settings: read-out: in vitro SPA assay PARP-1 pIC50 (converted)
endpoint_label: IC50 (nM)
Report the value in nM with no unit label.

>>> measured_number("Cc1cc2ccc(C(C)(C#N)Cc3cccc(C#CC(C)(C)O)n3)cc2[nH]c1=O (stereo not drawn)")
398

For the compound shown here, CCc1cc2ccc(C(C)(C#N)Cc3cccc(NS(C)(=O)=O)c3)cc2[nH]c1=O (stereo not drawn) , give the reported IC50. 398

What do you have for CCc1cc2ccc(C(C)(C#N)Cc3cccc(N(C)CCc4ccccc4)n3)cc2[nH]c1=O.Cl (stereo not drawn) ? 398

====

The entries below are paired with their reported melting point.

# annotated cases, reported melting point shown
>>> result("CCc1cc2cc(C)c(C(C)(C#N)Cc3cccc(C#N)n3)cc2[nH]c1=O (centres unmarked)")
"> 250 °C"
>>> result("CCc1cc2ccc(C(C)(C#N)Cc3cccc(N4CCCC4)n3)cc2[nH]c1=O (centres unmarked)")
"155 °C"
>>> result("CCc1cc2ccc([C@@](C)(C#N)Cc3nc(OC)cc(OC)n3)cc2[nH]c1=O (single isomer, unassigned)")
"163 °C"
>>> result("CCc1cc2ccc(C(C)(C#N)Cc3cccc(O)c3)cc2[nH]c1=O (centres unmarked)")
"217 °C"

Can you share its melting point? I mean this compound: CCc1cc2ccc([C@](C)(C#N)Cc3nc(OC)cc(OC)n3)cc2[nH]c1=O (single isomer, unassigned) 178 °C

====

Below, each entry is listed with its recorded minimal effective concentration.
- System: PC3 cells
- protocol_notes: EB1 Comet (microtubule disruption) assay
- Type: cell-based, human
- settings: Homo sapiens, PC-3, 1 h, 1 hour treatment, read-out: EB1 pLAC (converted)

Sample answers from the record:
>>> result("CCc1cc2ccc(C(C#N)(Cc3ccccc3)c3ccc(C#N)cc3)cc2[nH]c1=O (stereo not drawn)")
"> 10 µM"
>>> result("Cc1cc2ccc(C(C)(C#N)Cc3cccc(C#N)n3)cc2[nH]c1=O (stereo not drawn)")
"1 µM"

Sample CCc1cc2ccc(C(C)(C#N)Cc3cccc(C#N)[n+]3[O-])cc2[nH]c1=O (stereo not drawn) — what was its minimal effective concentration? 0.562 µM

Do the same for CCc1cc2ccc(C(C)(C#N)Cc3cccc(F)n3)cc2[nH]c1=O (stereo not drawn) please 0.1 µM

Queued: CCc1cc2ccc(C(C)(C#N)Cc3cccc(CN4CCOCC4)c3)cc2[nH]c1=O (stereo not drawn) 3.16 µM

Try CCC[C@@](C#N)(Cc1ccccc1)c1ccc2cc(CC)c(=O)[nH]c2c1 (single isomer, unassigned) next. 3.16 µM

====

- target_system: Human PARP-1 enzyme (Homo sapiens, UniProt P09874)
- Construct: purchased Trevigen
- Sequence (P09874 whole entry): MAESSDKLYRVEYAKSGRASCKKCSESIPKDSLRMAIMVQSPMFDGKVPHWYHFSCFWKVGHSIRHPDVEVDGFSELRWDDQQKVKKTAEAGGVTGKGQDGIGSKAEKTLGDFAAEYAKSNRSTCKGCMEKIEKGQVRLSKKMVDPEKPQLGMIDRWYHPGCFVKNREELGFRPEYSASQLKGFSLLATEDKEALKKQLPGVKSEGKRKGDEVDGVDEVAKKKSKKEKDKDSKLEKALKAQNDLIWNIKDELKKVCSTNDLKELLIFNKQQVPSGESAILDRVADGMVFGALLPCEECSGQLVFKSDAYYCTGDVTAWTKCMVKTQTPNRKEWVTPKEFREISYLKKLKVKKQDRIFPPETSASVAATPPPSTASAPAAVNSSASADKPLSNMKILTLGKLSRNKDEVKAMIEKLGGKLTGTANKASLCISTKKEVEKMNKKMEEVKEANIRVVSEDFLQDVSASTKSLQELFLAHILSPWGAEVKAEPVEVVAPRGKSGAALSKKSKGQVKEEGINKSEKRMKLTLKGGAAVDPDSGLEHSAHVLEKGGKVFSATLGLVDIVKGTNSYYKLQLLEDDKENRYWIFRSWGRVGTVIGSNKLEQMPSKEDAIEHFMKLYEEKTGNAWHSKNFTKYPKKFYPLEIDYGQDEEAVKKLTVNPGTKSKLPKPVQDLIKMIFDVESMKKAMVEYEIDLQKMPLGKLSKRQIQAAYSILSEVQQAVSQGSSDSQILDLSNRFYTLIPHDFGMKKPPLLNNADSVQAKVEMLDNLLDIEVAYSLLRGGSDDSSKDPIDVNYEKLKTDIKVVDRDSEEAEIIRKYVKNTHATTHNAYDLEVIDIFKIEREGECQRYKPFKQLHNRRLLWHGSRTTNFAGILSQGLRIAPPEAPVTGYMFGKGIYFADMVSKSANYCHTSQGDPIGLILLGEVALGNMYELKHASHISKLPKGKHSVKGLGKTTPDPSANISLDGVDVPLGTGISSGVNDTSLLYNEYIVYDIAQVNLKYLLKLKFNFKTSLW
- protocol_notes: In vitro Scintillation Proximity Assay (SPA) for PARP-1 inhibitory activity
- Format: biochemical
- settings: read-out: in vitro SPA assay PARP-1 pIC50 (converted)
Here the recorded IC50 is given for each entry.
Quick note: give the figure in nM, leave out the unit.

Quick one: IC50 of CCc1cc2ccc(C(C)(C#N)Cc3cc(C#N)nc(N(C)C)c3)cc2[nH]c1=O (stereo not shown) ? 79.4

Same lookup for CCc1cc2ccc(C(C)(C#N)Cc3cccc(-c4ccccc4)c3)cc2[nH]c1=O (stereo not shown) , please. 2000

Let us now turn to CCc1cc2ccc(C(C)(C#N)Cc3cccc(C(=O)N(C)C)c3)cc2[nH]c1=O (stereo not shown) 1000

What about this compound? CCc1cc2ccc(C(C)(C#N)Cc3cccc(S(C)(=O)=O)c3)cc2[nH]c1=O (stereo not shown) 631

// same read-out, input: CCc1cc2ccc(C(C)(C#N)Cc3cc(C#N)cc4c3OCC4)cc2[nH]c1=O (stereo not shown) 20

Thanks! And CCc1cc2ccc(C(C)(C#N)Cc3cc(F)cc(F)c3)cc2[nH]c1=O (stereo not shown) [Compound 128] ? 501

Now the compound CCc1cc2ccc(C(C)(C#N)Cc3ccc4ccccc4c3)cc2[nH]c1=O (stereo not shown) 1260

Param item: CCc1cc2ccc(C(C)(C#N)Cc3cccc(C(=O)O)c3)cc2[nH]c1=O (stereo not shown) 79.4

Consider next the compound CCc1cc2ccc(C(C)(C#N)Cc3ccc(F)c(C#N)c3)cc2[nH]c1=O (stereo not shown) in the same way. 79.4

Cool, now Cc1cc2ccc([C@](C)(C#N)[C@H]3CCCc4ccccc43)cc2[nH]c1=O 501

Source listed as patent US8778966B2.
